target: Epidermal growth factor receptor (Homo sapiens, UniProt P00533, L858R); test: Inhibition of EGFR L858R mutant (unknown origin)
PARAMETER_MEASURED: pIC50
When answering, recall that pIC50 equals minus log10 of the concentration in mol/L, and write that number alone.

Fill in the blank: the reported pIC50 of N#C/C(=C/C(=O)N1CCC[C@@H](n2nc(-c3cnc4[nH]ccc4c3)c3c(N)ncnc32)C1)C1CC1 is ____. 8.70

----------
molecular target: Epidermal growth factor receptor (Homo sapiens, UniProt P00533); assay: Inhibition of human recombinant His-tagged EGFR expressed in baculovirus using poly-Gluo-Tyr as a substrate measured after 24 hrs by western blot analysis
PARAMETER_MEASURED: pIC50
Scale note: pIC50 = -log10(concentration in M).

What does the data say about its pIC50? Entry: COc1cccc(-c2cn(-c3ccc(CCN4CCC(O)CC4)cc3)c3ncnc(N)c23)c1 6.82

----------
target: Phosphatidylinositol 4,5-bisphosphate 3-kinase catalytic subunit gamma isoform (Homo sapiens, UniProt P48736); assay: Binding affinity to PI3Kgamma (unknown origin) assessed as dissociation constant
pKd: −log10 of the molar value.
PARAMETER_MEASURED: pKd

Given the molecule CC(C)Oc1ccc(-c2nn([C@H](C)c3oc4ccc(F)cc4c(=O)c3-c3cccc(F)c3)c3ncnc(N)c23)cc1F , what is its reported pKd? < 5.85

----------
PARAMETER_MEASURED: Kd (nM)
Output spec: scalar in nM, unitless text.

Form field - read-out: Kd; system: UniProtKB P09769; submitted item: Nc1ncnc2c1c(-c1ccc(Cl)cc1)nn2-c1cccc(-c2cnnn2Cc2cccc(-c3ccccc3)c2)c1 240

----------
assay: Oral bioavailability in rat at 3 mg/kg; type: ADME, organism-based; conditions: in vivo
PARAMETER_MEASURED: bioavailability (%)
Write it as a number; the unit % goes unstated.

Requested field: bioavailability. Item: COCc1c(-c2cc3cc(C)cc(OC)c3s2)c2c(N)ncnn2c1CN1CCNC(=O)C1 [ROGARATINIB] 22

----------
target: Proto-oncogene tyrosine-protein kinase receptor Ret (Homo sapiens, UniProt P07949); assay: Inhibition of recombinant GST-tagged RET (unknown origin) using EAIYAAPFKKK as substrate in the presence of ATP of 100 uM by western blot analysis
Sequence (P07949 whole entry): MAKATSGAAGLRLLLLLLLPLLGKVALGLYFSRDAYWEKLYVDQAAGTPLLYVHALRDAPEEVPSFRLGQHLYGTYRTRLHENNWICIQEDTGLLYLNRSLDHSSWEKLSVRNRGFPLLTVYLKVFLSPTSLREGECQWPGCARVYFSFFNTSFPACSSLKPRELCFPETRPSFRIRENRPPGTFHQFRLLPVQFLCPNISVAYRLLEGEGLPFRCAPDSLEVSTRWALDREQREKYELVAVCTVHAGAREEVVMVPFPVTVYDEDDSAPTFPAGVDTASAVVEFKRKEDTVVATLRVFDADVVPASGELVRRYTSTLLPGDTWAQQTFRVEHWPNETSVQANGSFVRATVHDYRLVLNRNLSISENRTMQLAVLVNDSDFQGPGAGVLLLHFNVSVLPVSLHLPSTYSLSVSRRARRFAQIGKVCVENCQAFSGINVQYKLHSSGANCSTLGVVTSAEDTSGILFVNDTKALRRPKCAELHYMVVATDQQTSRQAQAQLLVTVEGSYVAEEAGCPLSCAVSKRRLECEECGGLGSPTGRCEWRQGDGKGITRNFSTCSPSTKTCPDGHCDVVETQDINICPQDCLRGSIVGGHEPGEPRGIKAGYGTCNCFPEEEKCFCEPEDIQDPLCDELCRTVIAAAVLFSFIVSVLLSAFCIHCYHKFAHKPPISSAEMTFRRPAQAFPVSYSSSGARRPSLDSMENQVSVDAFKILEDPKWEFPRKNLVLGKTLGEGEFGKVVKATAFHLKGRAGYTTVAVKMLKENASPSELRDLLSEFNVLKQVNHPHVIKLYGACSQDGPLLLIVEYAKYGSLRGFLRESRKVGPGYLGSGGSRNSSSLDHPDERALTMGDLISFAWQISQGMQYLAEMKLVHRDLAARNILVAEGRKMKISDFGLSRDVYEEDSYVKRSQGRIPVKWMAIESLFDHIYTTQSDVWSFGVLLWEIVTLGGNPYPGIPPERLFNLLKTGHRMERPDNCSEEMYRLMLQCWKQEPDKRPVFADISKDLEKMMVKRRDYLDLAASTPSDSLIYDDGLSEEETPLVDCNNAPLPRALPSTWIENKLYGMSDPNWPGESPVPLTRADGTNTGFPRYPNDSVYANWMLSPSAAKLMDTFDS
PARAMETER_MEASURED: IC50 (nM)
Entry rule: numbers only, all in nM.

Given the entry CC(C)(C)n1nc(-c2ccc(NC(=O)c3cc(C(F)(F)F)ccc3F)cc2)c2c(N)ncnc21 , report its measured IC50. 4

----------
test: in vitro; conditions: human, liver microsomes
Description: Clearance in human liver microsomes
PARAMETER_MEASURED: microsomal CLint
Answer with the number, then the unit.

Form field: reported microsomal CLint of Nc1ncnc2c1c(-c1ccc(Oc3ccccc3)nc1)nn2[C@@H]1CCCN(C(=O)CCl)C1 82.5 µL/min/mg

----------
target: Phosphatidylinositol 4,5-bisphosphate 3-kinase catalytic subunit alpha isoform (Homo sapiens); test: Binding affinity to PI3Kalpha (unknown origin) assessed as dissociation constant
Sequence (P42336 whole entry, canonical isoform): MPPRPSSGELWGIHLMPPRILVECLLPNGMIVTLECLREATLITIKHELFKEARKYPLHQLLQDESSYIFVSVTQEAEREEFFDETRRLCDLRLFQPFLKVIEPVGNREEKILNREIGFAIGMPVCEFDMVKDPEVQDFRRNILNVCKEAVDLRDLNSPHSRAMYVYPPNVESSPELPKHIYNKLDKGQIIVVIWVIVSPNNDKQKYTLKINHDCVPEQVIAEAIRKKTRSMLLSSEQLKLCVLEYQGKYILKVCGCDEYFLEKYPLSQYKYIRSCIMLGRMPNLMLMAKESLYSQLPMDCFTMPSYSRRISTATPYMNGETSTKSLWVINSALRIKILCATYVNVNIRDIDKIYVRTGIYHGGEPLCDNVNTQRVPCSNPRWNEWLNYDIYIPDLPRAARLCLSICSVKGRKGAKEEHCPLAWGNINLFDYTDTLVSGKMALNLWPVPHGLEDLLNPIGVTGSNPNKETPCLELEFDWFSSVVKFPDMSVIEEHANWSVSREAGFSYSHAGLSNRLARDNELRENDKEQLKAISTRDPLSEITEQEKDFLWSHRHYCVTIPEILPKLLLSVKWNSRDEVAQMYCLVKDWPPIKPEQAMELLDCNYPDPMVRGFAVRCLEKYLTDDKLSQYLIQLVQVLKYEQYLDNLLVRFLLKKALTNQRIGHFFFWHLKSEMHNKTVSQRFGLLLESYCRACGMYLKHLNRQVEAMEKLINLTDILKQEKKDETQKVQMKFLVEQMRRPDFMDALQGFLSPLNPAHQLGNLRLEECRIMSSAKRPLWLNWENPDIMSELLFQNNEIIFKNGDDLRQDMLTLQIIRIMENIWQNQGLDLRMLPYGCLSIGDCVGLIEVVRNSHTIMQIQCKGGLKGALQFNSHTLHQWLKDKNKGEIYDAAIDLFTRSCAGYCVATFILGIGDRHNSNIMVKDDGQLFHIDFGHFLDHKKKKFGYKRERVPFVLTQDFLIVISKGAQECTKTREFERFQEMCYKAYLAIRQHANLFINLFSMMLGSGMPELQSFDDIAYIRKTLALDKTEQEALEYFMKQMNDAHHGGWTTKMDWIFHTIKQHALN
pKd: −log10 of the molar value.
PARAMETER_MEASURED: pKd

Entry CC(C)Oc1ccc(-c2nn([C@H](C)c3oc4ccc(F)cc4c(=O)c3-c3cccc(F)c3)c3ncnc(N)c23)cc1F has what pKd? < 5.00

----------
test system: Z-138; assay: Antiproliferative activity against human Z138 cells assessed as reduction cell viability measured after 24 hrs by Cell Titer-Glo Luminescent Cell Viability Assay; type: functional, cell-based; conditions: Z-138, 24 h
Kindly state IC50 for each of the entries shown.
Write it as a number; the unit µM goes unstated.

Could you share which IC50 value was measured for Nc1ncnc2c1c(-c1ccc(Oc3ccccc3)nc1)nn2[C@@H]1CCCN(C(=O)CCl)C1 ? 0.4

Look up IC50: C=CC(=O)N1CCC[C@@H](n2nc(-c3ccc(Oc4ccccc4)cc3)c3c(N)ncnc32)C1 9.7

----------
experiment: Half life in CD1 mouse at 1 mg/kg, iv by LC-MS/MS analysis; format: ADME, organism-based; settings: in vivo
PARAMETER_MEASURED: half-life (h)
A number alone suffices; assume h.

Return reported half-life; argument: Cc1ccc2oc(-c3c4c(N)n[nH]c(=O)c4nn3-c3ccc(NC(=O)/C=C/CN(C)C)cc3)c(C)c2c1 1.39

----------
molecular target: Fibroblast growth factor receptor 3 (Homo sapiens, UniProt P22607); assay: Inhibition of human recombinant FGFR3
pIC50: −log10 of the molar value.
PARAMETER_MEASURED: pIC50

Given the compound C=CC(=O)N1CC[C@H](c2nc(-c3cc4cc(Br)cc(OC)c4s3)c3c(N)nccn23)C1 , what is its reported pIC50? > 9.52

----------
assay: Tumor growth inhibition in CD1 mouse at 5 to 250 mg/kg; settings: in vivo, po
PARAMETER_MEASURED: TGI

Which measured TGI value corresponds to C[C@]1(O)C[C@@H](c2nc(-c3ccc4ccc(-c5ccccc5)nc4c3)c3c(N)nccn32)C1 ? > 84%

----------
target: Cytoplasmic tyrosine-protein kinase BMX (Homo sapiens); experiment: Inhibition of BMX (unknown origin)
PARAMETER_MEASURED: IC50 (nM)
Answer with a number only, understood to be in nM.

Report IC50 for N#CN1CCC[C@@H](n2nc(-c3ccc(Oc4ccc(F)cc4F)cc3)c(C(N)=O)c2N)C1 tested on Cytoplasmic tyrosine-protein kinase BMX (Homo sapiens). 0.9

----------
assay: AUC (0 to t) in CD1 mouse at 1 mg/kg, iv by LC-MS/MS analysis; type: ADME, organism-based; set-up: dose 1 mg/kg, route iv; details: in vivo
PARAMETER_MEASURED: AUCt (ng·h/mL)
Lab book: enter the figure in ng·h/mL, no units written.

# query: AUCt of entry Cc1ccc2oc(-c3c4c(N)n[nH]c(=O)c4nn3-c3ccc(NC(=O)/C=C/CN(C)C)cc3)c(C)c2c1 281

----------
assay: Clearance in rat at 1 mg/kg, iv; format: ADME, organism-based; conditions: in vivo
PARAMETER_MEASURED: clearance
Report as: number unit

// returns reported clearance for input COCc1c(-c2cc3cc(C)cc(OC)c3s2)c2c(N)ncnn2c1CN1CCNC(=O)C1 7.5 mL/min/kg

----------
assay: in vitro; conditions: human, liver microsomes
Description: Half life in human liver microsomes
PARAMETER_MEASURED: half-life

Item Nc1ncnc2c1c(-c1ccc(Oc3ccccc3)nc1)nn2[C@@H]1CCCN(C(=O)CCl)C1 has what recorded half-life? 16.8 min

----------
biological target: UniProt:P11362; test: Inhibition of human recombinant FGFR1
PARAMETER_MEASURED: IC50

// query IC50 value for entry C=CC(=O)N1CC[C@H](c2nc(-c3cc4cc(Br)cc(OC)c4s3)c3c(N)nccn23)C1 < 0.3 nM

----------
experiment: Half life in CD1 mouse at 3 mg/kg, ip by LC-MS/MS analysis; format: ADME, organism-based; conditions: in vivo
PARAMETER_MEASURED: half-life (min)
Write the number in min without appending the unit.

Using the record for Cc1ccc2oc(-c3c4c(N)n[nH]c(=O)c4nn3-c3ccc(NC(=O)/C=C/CN(C)C)cc3)c(C)c2c1 , report its half-life. 222

----------
biological target: Vascular endothelial growth factor receptor 2 (Homo sapiens, UniProt P35968); test: Inhibition of VEGFR2 (unknown origin)
Sequence (P35968 whole entry): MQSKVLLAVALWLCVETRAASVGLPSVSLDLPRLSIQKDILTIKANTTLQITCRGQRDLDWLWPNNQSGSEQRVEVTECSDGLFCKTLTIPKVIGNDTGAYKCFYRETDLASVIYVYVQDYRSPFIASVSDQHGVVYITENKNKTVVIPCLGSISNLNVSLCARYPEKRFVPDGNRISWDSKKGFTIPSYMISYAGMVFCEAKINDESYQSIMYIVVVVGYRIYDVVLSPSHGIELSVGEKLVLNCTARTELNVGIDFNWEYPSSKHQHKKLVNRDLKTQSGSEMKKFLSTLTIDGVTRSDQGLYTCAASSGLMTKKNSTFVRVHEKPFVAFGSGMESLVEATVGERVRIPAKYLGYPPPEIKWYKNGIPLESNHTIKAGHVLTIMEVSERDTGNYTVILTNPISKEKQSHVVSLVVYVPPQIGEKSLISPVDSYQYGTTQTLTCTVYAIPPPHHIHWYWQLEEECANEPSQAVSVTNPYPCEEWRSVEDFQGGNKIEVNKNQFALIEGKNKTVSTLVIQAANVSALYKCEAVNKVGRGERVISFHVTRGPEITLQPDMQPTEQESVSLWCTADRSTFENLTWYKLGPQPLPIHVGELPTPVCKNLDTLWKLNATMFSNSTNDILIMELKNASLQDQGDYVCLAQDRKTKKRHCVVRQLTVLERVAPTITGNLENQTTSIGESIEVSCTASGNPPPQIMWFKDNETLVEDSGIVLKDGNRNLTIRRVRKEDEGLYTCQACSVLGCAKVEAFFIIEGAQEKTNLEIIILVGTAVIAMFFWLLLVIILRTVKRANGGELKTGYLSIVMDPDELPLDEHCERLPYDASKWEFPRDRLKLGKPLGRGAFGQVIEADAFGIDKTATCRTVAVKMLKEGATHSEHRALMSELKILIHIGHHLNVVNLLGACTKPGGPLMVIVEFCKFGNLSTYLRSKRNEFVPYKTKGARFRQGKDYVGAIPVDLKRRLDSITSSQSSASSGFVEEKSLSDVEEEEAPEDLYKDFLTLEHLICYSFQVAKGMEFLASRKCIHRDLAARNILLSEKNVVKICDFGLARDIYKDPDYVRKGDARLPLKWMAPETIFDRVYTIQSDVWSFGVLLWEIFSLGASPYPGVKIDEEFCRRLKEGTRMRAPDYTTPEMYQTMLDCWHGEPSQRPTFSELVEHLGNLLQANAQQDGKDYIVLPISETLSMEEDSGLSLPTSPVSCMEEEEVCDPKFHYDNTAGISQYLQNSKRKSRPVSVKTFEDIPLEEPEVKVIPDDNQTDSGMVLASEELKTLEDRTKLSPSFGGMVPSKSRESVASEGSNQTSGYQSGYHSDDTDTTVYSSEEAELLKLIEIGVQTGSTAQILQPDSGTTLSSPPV
PARAMETER_MEASURED: IC50

Need IC50 of C#CCO[C@@H]1[C@H](C)[C@@H](COS(=O)(=O)C=C)O[C@H]1n1nc(-c2ccc(C)cc2)c2c(N)ncnc21 , thanks. 87 nM

Item under review: C#CCO[C@@H]1[C@H](C)[C@@H](COC(=O)c2ccc(S(=O)(=O)F)cc2)O[C@H]1n1nc(-c2ccc(C)cc2)c2c(N)ncnc21 . Reported IC50? 475 nM

----------
assay: Half life in rat at 1 mg/kg, iv; assay type: ADME, organism-based; details: in vivo
PARAMETER_MEASURED: half-life (h)
Answer with a number only, understood to be in h.

Find the recorded half-life belonging to COCc1c(-c2cc3cc(C)cc(OC)c3s2)c2c(N)ncnn2c1CN1CCNC(=O)C1 and report it. 12

----------
target: Phosphatidylinositol 4,5-bisphosphate 3-kinase catalytic subunit delta isoform (Homo sapiens, UniProt O00329); assay: Inhibition of PI3Kdelta (unknown origin) at 1 uM
Sequence (O00329 whole entry, canonical isoform): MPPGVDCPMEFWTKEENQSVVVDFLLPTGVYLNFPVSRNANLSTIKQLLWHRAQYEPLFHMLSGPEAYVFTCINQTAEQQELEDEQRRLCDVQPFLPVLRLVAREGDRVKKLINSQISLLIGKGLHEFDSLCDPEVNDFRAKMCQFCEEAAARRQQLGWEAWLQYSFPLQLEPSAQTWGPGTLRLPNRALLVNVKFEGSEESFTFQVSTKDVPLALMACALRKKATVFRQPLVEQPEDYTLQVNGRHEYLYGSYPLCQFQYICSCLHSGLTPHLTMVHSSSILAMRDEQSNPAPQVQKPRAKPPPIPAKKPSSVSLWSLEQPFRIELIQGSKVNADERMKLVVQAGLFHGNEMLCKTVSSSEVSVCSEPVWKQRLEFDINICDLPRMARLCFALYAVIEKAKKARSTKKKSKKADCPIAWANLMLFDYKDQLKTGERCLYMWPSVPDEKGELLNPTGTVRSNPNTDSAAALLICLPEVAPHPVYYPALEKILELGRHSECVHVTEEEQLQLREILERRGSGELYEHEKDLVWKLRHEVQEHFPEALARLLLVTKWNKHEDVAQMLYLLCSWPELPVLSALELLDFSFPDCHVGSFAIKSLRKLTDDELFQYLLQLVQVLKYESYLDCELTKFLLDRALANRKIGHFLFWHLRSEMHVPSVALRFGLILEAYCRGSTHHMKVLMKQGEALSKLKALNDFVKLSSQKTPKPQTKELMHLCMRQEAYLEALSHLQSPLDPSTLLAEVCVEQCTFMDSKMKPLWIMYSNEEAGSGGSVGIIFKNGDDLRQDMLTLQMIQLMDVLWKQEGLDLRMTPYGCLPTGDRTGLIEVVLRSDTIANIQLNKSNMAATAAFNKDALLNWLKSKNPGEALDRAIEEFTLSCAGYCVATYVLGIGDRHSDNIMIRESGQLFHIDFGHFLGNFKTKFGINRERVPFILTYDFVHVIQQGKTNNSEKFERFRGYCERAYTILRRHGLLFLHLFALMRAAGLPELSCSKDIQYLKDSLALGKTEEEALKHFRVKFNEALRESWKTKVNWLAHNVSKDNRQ
PARAMETER_MEASURED: IC50 (nM)
State the answer as a number, implicitly in nM.

Field request: IC50 | item: C=CC(=O)N(CCn1nc(-c2cc(O)c(Br)c(F)c2)c2c(N)ncnc21)Cc1ccc(Cl)cc1 9.7

Dear colleague, I am looking for the recorded IC50 of the following compound: Nc1ncnc2c1c(-c1cc(O)c(Br)c(F)c1)nn2C1CCc2ccccc2C1 (stereo not drawn) 0.27

# get_value(readout='IC50', item= Nc1ncnc2c1c(-c1cc(O)c(Br)c(F)c1)nn2[C@H]1CCc2ccccc21 ) 1

The measurements presented in this section are drawn from ChEMBL document CHEMBL5241118.
